Known Mono of a selection of molecules
# Organism: Rattus norvegicus
# ASSAY TEXT: Open TG-GATES - Regimen: Single
# Format: toxicity, organism-based, Sprague-Dawley
# Set-up: regimen Single, gender Male, age 6 weeks
# CONDITION INFO: in vivo, po, 100 mg/kg, 9 h, tissue Blood, route gavage, dose level Low
Field: numeric (%). Do not append units.

As a guide, the following entries are already answered.
CCOC(=O)CCC(=O)O[C@H]1[C@H](O[C@@H]2[C@@H](C)[C@H](O[C@H]3C[C@@](C)(OC)[C@@H](O)[C@H](C)O3)[C@@H](C)C(=O)O[C@H](CC)[C@@](C)(O)[C@H](O)[C@@H](C)C(=O)[C@H](C)C[C@@]2(C)O)O[C@H](C)C[C@@H]1N(C)C [ERYTHROMYCIN ETHYLSUCCINATE] = 2
COC1=CC(=O)C[C@@H](C)[C@]12Oc1c(Cl)c(OC)cc(OC)c1C2=O [GRISEOFULVIN] = 2.2
NC(N)=Nc1nc(CSCCC(N)=NS(N)(=O)=O)cs1 [FAMOTIDINE] = 2.2

Next:
Query block: Given the entry COc1ccc2[nH]c([S+]([O-])Cc3ncc(C)c(OC)c3C)nc2c1 (centres undefined) [OMEPRAZOLE] , report its measured Mono.
Result block: 3.4

###

KIDNEY_TOTAL: recorded values
# Species on record: Rattus norvegicus
# ASSAY TEXT: Open TG-GATES - Regimen: Single
# Type: toxicity, organism-based, Sprague-Dawley
# Set-up: regimen Single, gender Male, age 6 weeks
# CONDITION INFO: in vivo, po, 100 mg/kg, 3 h, tissue Kidney, route gavage, dose level Low
Numeric only. Scale: g

COc1ccc2[nH]c([S+]([O-])Cc3ncc(C)c(OC)c3C)nc2c1 (centres undefined) = 2

Query block: Give the measured KIDNEY_TOTAL of "COC1=CC(=O)C[C@@H](C)[C@]12Oc1c(Cl)c(OC)cc(OC)c1C2=O" .
Result block: 1.9

Query block: Would you mind doing CCOC(=O)CCC(=O)O[C@H]1[C@H](O[C@@H]2[C@@H](C)[C@H](O[C@H]3C[C@@](C)(OC)[C@@H](O)[C@H](C)O3)[C@@H](C)C(=O)O[C@H](CC)[C@@](C)(O)[C@H](O)[C@@H](C)C(=O)[C@H](C)C[C@@]2(C)O)O[C@H](C)C[C@@H]1N(C)C [ERYTHROMYCIN ETHYLSUCCINATE] as well?
Result block: 1.9

Query block: Request: "NC(N)=Nc1nc(CSCCC(N)=NS(N)(=O)=O)cs1"
Result block: 1.9

###

# Organism: Rattus norvegicus
# ASSAY TEXT: Open TG-GATES - Regimen: Single
# Format: toxicity, organism-based, Sprague-Dawley
# Parameters: regimen Single, gender Male, age 6 weeks
# CONDITION INFO: in vivo, po, 0 mg/kg, 9 h, tissue Blood, route gavage, dose level Control
# Lym values compiled below
Note: unit % is implicit; provide only the numeric part.

Worked cases, Lym given:
COC1=CC(=O)C[C@@H](C)[C@]12Oc1c(Cl)c(OC)cc(OC)c1C2=O = 72.6
NC(N)=Nc1nc(CSCCC(N)=NS(N)(=O)=O)cs1 = 65.4
CC1=C(/C=C/C(C)=C/C=C/C(C)=C/CO)C(C)(C)CCC1 = 81.4
CCOc1ccc(NC(=O)CC(C)O)cc1 (stereo not drawn) = 79.8
CCOC(=O)CCC(=O)O[C@H]1[C@H](O[C@@H]2[C@@H](C)[C@H](O[C@H]3C[C@@](C)(OC)[C@@H](O)[C@H](C)O3)[C@@H](C)C(=O)O[C@H](CC)[C@@](C)(O)[C@H](O)[C@@H](C)C(=O)[C@H](C)C[C@@]2(C)O)O[C@H](C)C[C@@H]1N(C)C [ERYTHROMYCIN ETHYLSUCCINATE] = 81.2
CN(C)CCCN1c2ccccc2CCc2ccccc21 = 80.8

Query block: // query Lym value for entry "CN(C)CCN(Cc1cccs1)c1ccccn1"
Result block: 82.2

Query block: Now consider "Cc1ccc(C)c(OCCCC(C)(C)C(=O)O)c1" and answer again.
Result block: 80

Query block: Input "COc1cc2c(c(OC)c1OC)-c1ccc(OC)c(=O)cc1[C@@H](NC(C)=O)CC2"
Result block: 85.4

Query block: Try the compound "NNC(=O)c1ccncc1"
Result block: 79.2

Query block: Try the compound "CN(C)CCCN1c2ccccc2CCc2ccc(Cl)cc21"
Result block: 78.2

Query block: Next record, please: CCCNC(=O)NS(=O)(=O)c1ccc(Cl)cc1 [CHLORPROPAMIDE]
Result block: 74.4

Query block: And "CC/C(=C(\c1ccccc1)c1ccc(OCCN(C)C)cc1)c1ccccc1" ?
Result block: 75.2

###

# Species on record: Rattus norvegicus
# ASSAY TEXT: Open TG-GATES - Regimen: Single
# Type: toxicity, organism-based, Sprague-Dawley
# Design: regimen Single, gender Male, age 6 weeks
# CONDITION INFO: in vivo, po, 300 mg/kg, 6 h, tissue Plasma, route gavage, dose level Middle
PROPERTY NAME: TP (g/dL)
Write down the numeric answer in g/dL and omit the unit.

Example molecules with recorded TP:
COc1ccc2[nH]c([S+]([O-])Cc3ncc(C)c(OC)c3C)nc2c1 (centres undefined) [OMEPRAZOLE] = 5.5
NC(N)=Nc1nc(CSCCC(N)=NS(N)(=O)=O)cs1 [FAMOTIDINE] = 5.2
COC1=CC(=O)C[C@@H](C)[C@]12Oc1c(Cl)c(OC)cc(OC)c1C2=O [GRISEOFULVIN] = 5.4

Next, consider the following molecule.
Query block: I have this molecule here, CCOC(=O)CCC(=O)O[C@H]1[C@H](O[C@@H]2[C@@H](C)[C@H](O[C@H]3C[C@@](C)(OC)[C@@H](O)[C@H](C)O3)[C@@H](C)C(=O)O[C@H](CC)[C@@](C)(O)[C@H](O)[C@@H](C)C(=O)[C@H](C)C[C@@]2(C)O)O[C@H](C)C[C@@H]1N(C)C [ERYTHROMYCIN ETHYLSUCCINATE] , and I need its recorded TP.
Result block: 5.4

###

# Organism: Rattus norvegicus
# ASSAY TEXT: Open TG-GATES - Regimen: Daily Repeat
# Type: toxicity, organism-based, Sprague-Dawley
# Design: regimen Daily Repeat, gender Male, age 6 weeks
# CONDITION INFO: in vivo, po, 0 mg/kg, […], tissue Plasma, route gavage, dose level Control, time 28 day
PROPERTY NAME: BUN (mg/dL)
Write it as a number; the unit mg/dL goes unstated.

Known BUN results, listed for orientation:
O=C(CCCN1CCC(O)(c2ccc(Cl)cc2)CC1)c1ccc(F)cc1 [HALOPERIDOL] = 22.2
COC1=CC(=O)C[C@@H](C)[C@]12Oc1c(Cl)c(OC)cc(OC)c1C2=O [GRISEOFULVIN] = 15.2
COc1ccc2[nH]c([S+]([O-])Cc3ncc(C)c(OC)c3C)nc2c1 (stereo unspecified) [OMEPRAZOLE] = 16.6
CCOC(=O)CCC(=O)O[C@H]1[C@H](O[C@@H]2[C@@H](C)[C@H](O[C@H]3C[C@@](C)(OC)[C@@H](O)[C@H](C)O3)[C@@H](C)C(=O)O[C@H](CC)[C@@](C)(O)[C@H](O)[C@@H](C)C(=O)[C@H](C)C[C@@]2(C)O)O[C@H](C)C[C@@H]1N(C)C [ERYTHROMYCIN ETHYLSUCCINATE] = 19.6
CCCNC(=O)NS(=O)(=O)c1ccc(Cl)cc1 [CHLORPROPAMIDE] = 16.2

Query block: Would you mind telling me what BUN value was observed for CN1C(=O)CN=C(c2ccccc2)c2cc(Cl)ccc21 [DIAZEPAM] ?
Result block: 19.8

Query block: Also NC(N)=Nc1nc(CSCCC(N)=NS(N)(=O)=O)cs1 [FAMOTIDINE] ?
Result block: 18.6

Query block: Consider next the compound NNC(=O)c1ccncc1 [ISONIAZID] in the same way.
Result block: 19.4

Query block: Another compound to look at: CCOc1ccc(NC(=O)CC(C)O)cc1 (stereo unspecified) [BUCETIN]
Result block: 15.2

Query block: How about this compound: CC1=C(/C=C/C(C)=C/C=C/C(C)=C/CO)C(C)(C)CCC1 [RETINOL]
Result block: 16.8

Query block: Please give the result for "CN(C)CCN(Cc1cccs1)c1ccccn1" too.
Result block: 18.6

###

# Species: Rattus norvegicus
# ASSAY TEXT: Open TG-GATES - Regimen: Daily Repeat
# Assay type: toxicity, organism-based, Sprague-Dawley
# Parameters: regimen Daily Repeat, gender Male, age 6 weeks
# CONDITION INFO: in vivo, po, 10 mg/kg, 72 h, tissue Blood, route gavage, dose level Low, time 3 day
The following compounds are shown together with reported Mono values.
I'd appreciate it if you wrote the number followed by its unit.

Some solved entries appear below for comparison.
CC(C)OC(=O)C(C)(C)Oc1ccc(C(=O)c2ccc(Cl)cc2)cc1 [FENOFIBRATE] = 3%
CN(C)CCCN1c2ccccc2CCc2ccccc21 [IMIPRAMINE] = 2.8%
CN(C)CCN(Cc1cccs1)c1ccccn1 = 1.6%

Now examine the next entry.
Query block: # get_value(readout='Mono', item= CC1=C(/C=C/C(C)=C/C=C/C(C)=C/CO)C(C)(C)CCC1 [RETINOL] )
Result block: 2.6%
